TESTED_TARGET: T1, Bio-P19 member A2E-13 (chain 2: C-terminal BirA substrate peptide (BSP), enzymatically biotinylated; its letters are not printed in the patent and it is left out)
T1 construct: also called biotinylated control peptide A2E-13/HLA-A*02:01 monomer
T1 sequence (b2m, as listed by the source): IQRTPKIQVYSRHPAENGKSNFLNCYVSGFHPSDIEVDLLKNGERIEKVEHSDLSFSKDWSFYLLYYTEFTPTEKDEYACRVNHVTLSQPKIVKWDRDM
METHOD_DESCRIPTION: phage ELISA, streptavidin plate, anti-M13-HRP
MEASURED_METRIC: binding result

{"BINDER": "PSA146/HLA-A*02:01-specific scFv phage clone #14 (scFv, V domains shown) VH: EVQLVQSGAEVKKPGASVKVSCKASGYTFTGYFMHWVRQAPGQGLEWMGGFDPEDGETIYAQKFQGRVTMTEDTSTDTAYMELSSLRSEDTAVYYCARYSYDLWGQGTLVTVSS VL: QTVVTQEPSLTVSPGGTVTLTCASSTGAVTSGYYPNWFQQKPGQAPRALIYSTSNKHSWTPARFSGSLLGGKAALTLSGVQPEDEAEYYCLLYYGGAQWVFGGGTKLTVLG", "DATA_VALUE": "no binding"}
{"BINDER": "PSA146/HLA-A*02:01-specific scFv phage clone #12 (scFv, V domains shown) VH: QMQLVQSGSEVKKPGASVKVSCKASGYTFTSYGISWVRQAPGQGLEWMGWISAYNGNTDYVQKLQGRVTMTTDTSTNTAYMELGSLGSDDTAVYYCARTNYNKYDIWGQGTLVTVSS VL: QSVLTQPPSVSGAPGQRVTISCTGSSSNIGAGYDVHWYQQLPGTAPKLLIYGNSNRPSGVPDRFSGSKSGTSASLAITGLQAEDEADYYCQSYDSSLSEVFGTGTKVTVLG", "DATA_VALUE": "no binding"}
{"BINDER": "PSA146/HLA-A*02:01-specific scFv phage clone #15 (scFv, V domains shown) VH: QVQLVQSGAEVKKPGSSVKVSCKASGGTFSSYAISWVRQAPGQGLEWMGRIIPILGIANYAQKFQGRVTITADKSTSTAYMELSSLRSEDTAVYYCARVSQPVYGSSTYDIWGQGTLVTVSS VL: QAVLTQPPSASGTPGQRVTISCSGRSSNLGSNSVNWYQQVPGTAPKLLIFDNHQRPSGVPDRFSGSKSGTSASLAISGLRSEDETDYYCAAWDDSLNSVVFGGGTKLTVLG", "DATA_VALUE": "no binding"}
